MIC listing for selected compounds.
- System: Trichophyton mentagrophytes 445
- Experimental Details: In vitro antifungal susceptibility testing (broth microdilution)
- Format: cell-based
- Run Conditions: 120h, M38-A for moulds, IC50 value, read-out: MIC TM
Expressed in µM, but write only the number.

Use these answered entries as a reference point.
compound="O=C(CNC(=O)c1cc(Cl)ccc1O)Nc1cccc(Cl)c1 [8a]" readout=MIC assay_value=125
compound="OC(Cn1cncn1)(Cn1cncn1)c1ccc(F)cc1F [FLU, fluconazole, reference compound]" readout=MIC assay_value=3.91
compound="CC(C)[C@@H](NC(=O)c1cc(Cl)ccc1O)C(=O)Nc1cccc(Cl)c1 [8e]" readout=MIC assay_value=125

Next:
Query: I'm curious: which MIC was measured for CC(C)[C@@H](NC(=O)c1cc(Cl)ccc1O)C(=O)Nc1ccc(Cl)cc1 [8j] tested on Trichophyton mentagrophytes 445?
Reply: 62.5
